- System name: GSPT1 (Homo sapiens, UniProt P15170+Q96SW2)
- Sequence (P15170 whole entry): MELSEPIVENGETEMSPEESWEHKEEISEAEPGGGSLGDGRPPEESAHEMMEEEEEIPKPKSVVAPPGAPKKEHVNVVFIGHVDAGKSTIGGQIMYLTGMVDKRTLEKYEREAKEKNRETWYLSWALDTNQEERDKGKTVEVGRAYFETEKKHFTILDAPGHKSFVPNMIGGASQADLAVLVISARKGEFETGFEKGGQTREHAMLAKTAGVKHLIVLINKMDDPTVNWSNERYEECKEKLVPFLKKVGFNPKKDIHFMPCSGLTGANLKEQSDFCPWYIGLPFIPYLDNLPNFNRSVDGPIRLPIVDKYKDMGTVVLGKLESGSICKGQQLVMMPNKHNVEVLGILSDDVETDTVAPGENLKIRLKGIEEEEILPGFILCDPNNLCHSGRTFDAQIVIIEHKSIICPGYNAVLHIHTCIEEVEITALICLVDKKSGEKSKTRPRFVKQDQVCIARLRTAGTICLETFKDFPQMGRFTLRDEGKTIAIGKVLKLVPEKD
- Sequence (Q96SW2 whole entry): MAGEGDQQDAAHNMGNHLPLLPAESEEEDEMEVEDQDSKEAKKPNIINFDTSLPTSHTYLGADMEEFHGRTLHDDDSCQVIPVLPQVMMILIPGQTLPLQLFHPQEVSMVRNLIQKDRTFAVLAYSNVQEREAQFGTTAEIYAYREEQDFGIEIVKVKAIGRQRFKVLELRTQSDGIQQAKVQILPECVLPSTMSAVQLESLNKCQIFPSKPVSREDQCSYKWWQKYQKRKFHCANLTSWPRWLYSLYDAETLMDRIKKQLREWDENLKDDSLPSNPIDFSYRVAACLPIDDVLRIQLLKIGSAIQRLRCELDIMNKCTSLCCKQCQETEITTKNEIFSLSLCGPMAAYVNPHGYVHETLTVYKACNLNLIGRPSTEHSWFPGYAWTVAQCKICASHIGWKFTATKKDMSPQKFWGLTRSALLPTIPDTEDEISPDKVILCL
- Sequence (Q16531 whole entry partner): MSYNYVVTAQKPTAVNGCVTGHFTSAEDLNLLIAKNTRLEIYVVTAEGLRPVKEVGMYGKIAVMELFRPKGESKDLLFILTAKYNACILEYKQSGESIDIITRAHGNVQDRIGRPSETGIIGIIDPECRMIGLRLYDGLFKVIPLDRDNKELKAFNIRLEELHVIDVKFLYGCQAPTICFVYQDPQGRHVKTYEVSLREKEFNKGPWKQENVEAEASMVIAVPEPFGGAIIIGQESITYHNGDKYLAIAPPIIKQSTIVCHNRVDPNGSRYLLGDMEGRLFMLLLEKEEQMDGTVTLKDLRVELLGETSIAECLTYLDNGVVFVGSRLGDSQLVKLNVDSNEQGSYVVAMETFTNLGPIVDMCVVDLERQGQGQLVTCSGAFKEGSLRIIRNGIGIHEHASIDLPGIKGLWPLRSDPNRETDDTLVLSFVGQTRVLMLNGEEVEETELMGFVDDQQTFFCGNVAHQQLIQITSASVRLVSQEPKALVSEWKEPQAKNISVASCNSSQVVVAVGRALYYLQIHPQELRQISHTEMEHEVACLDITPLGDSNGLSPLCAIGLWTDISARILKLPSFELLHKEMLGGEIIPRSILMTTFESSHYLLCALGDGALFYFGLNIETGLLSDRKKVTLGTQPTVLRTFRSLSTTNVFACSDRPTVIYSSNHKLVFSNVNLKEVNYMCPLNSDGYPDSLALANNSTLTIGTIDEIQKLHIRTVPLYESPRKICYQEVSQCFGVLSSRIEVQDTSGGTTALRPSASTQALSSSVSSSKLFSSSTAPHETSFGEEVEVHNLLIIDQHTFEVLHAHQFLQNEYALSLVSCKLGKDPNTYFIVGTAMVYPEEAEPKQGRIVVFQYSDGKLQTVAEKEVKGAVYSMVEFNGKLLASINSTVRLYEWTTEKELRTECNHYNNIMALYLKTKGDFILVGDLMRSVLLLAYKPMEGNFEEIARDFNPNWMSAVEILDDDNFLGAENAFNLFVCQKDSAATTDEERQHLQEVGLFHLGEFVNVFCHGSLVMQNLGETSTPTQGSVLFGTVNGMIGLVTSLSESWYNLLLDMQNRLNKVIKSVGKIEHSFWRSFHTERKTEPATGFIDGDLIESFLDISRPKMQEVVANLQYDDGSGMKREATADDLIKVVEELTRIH
- Experiment notes: HiBiT degradation assay, GSPT1, Procedure A
- Type: cell-based
- Design: HiBit-GSPT1 KI HEK293(LgBit) Cells; host or cells: HEK293(LgBit) knock-in cells
- Study conditions: six hours incubation
Quick reference: DC50 of the listed items.

Compound	DC50
Cc1cc(-c2c(-c3ccc4c(c3)CN(C3CCC(=O)NC3=O)C4=O)cnn2C)ccc1F (stereo not drawn) [Example 91]	≥ 25 nM
Cn1ncc(-c2ccc3c(c2)CN(C2CCC(=O)NC2=O)C3=O)c1-c1ccc(Cl)c(Cl)c1 (stereo not drawn) [Example 75]	≥ 25 nM

API: the following record is the query input.
IN: Form field: DC50 recorded for Cn1cnc(-c2ccc3c(c2)CN(C2CCC(=O)NC2=O)C3=O)c1-c1ccc(S(C)(=O)=O)cc1 (stereo not drawn) [Example 306] with GSPT1 (Homo sapiens, UniProt P15170+Q96SW2) (enter value)
OUT: ≥ 25 nM

* * *

- System name: CK1α (Homo sapiens, UniProt P48729+Q96SW2)
- Construct: CSNK1A1-HiBit KI HEK293(LgBit) Cells; host or cells: HEK293(LgBit) knock-in cells
- Sequence (P48729 whole entry): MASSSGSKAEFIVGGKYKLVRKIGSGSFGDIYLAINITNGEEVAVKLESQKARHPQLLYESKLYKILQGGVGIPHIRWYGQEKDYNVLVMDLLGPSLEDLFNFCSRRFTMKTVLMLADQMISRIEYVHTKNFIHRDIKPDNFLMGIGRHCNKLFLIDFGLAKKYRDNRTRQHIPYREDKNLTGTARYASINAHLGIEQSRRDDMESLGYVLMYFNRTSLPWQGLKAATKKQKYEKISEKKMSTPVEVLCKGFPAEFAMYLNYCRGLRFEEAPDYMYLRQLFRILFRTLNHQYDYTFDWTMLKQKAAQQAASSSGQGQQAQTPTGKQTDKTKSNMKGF
- Sequence (Q96SW2 whole entry): as the sequence (Q96SW2 whole entry) above
- Sequence (Q16531 whole entry partner): as the sequence (Q16531 whole entry partner) above
- Experiment notes: HiBiT degradation assay, CK1α, Procedure A
- Type: cell-based
- Study conditions: six hours incubation
- Protocol: Compounds were spotted onto Cornin 384-Well, Cell Culture-Treated, Flat-Bottom, Low Flange Microplate (Fisher Scientific, Catalog #07-201-013) using a Tecan D300e digital dispenser. […] Cells were dissociated from tissue 182 cm^2 Tissue Culture Flask (CellTreat Catalog #229351) by washing the cells with PBS (Fisher Scientific Catalog #BP3994) followed by dissociation with Trypsin-EDTA (0.25%) (Thermo Scientific Catalog #25200056). […] Cell density was determined using a Denovix CellDrop BF cell counter. […]
Quick reference for DC50 among some molecules

Molecule	System name	DC50
Cn1cnc(-c2ccc3c(c2)CN(C2CCC(=O)NC2=O)C3=O)c1-c1ccc(C(=O)NC2CCCC2)cc1 (stereo not drawn)	CK1α (Homo sapiens, UniProt P48729+Q96SW2)	≥ 25 nM
Cn1cnc(-c2ccc3c(c2)CN(C2CCC(=O)NC2=O)C3=O)c1-c1cnn(-c2ccccc2)c1 (stereo not drawn)	CK1α (Homo sapiens, UniProt P48729+Q96SW2)	< 25 nM
Cn1nc(-c2ccc3c(c2)CN(C2CCC(=O)NC2=O)C3=O)cc1-c1ccccc1 (stereo not drawn)	CK1α (Homo sapiens, UniProt P48729+Q96SW2)	< 25 nM

IN: DC50 lookup needed for O=C1CCC(N2Cc3cc(-c4c[nH]c(-c5ccccc5)n4)ccc3C2=O)C(=O)N1 (stereo not drawn) , thanks.
OUT: < 25 nM

IN: Name the recorded DC50 for COc1ccc(Cl)cc1-c1c(-c2ccc3c(c2)CN(C2CCC(=O)NC2=O)C3=O)ncn1C (stereo not drawn) .
OUT: < 25 nM

IN: Consider the molecule shown here: Cn1ncc(-c2ccc3c(c2)CN(C2CCC(=O)NC2=O)C3=O)c1-c1cccc(Cl)c1 (stereo not drawn) [Example 173] What is its recorded DC50?
OUT: < 25 nM

IN: Recorded DC50 of Cn1cnc(-c2ccc3c(c2)CN(C2CCC(=O)NC2=O)C3=O)c1-c1cc(C#N)ccc1F (stereo not drawn) , please.
OUT: ≥ 25 nM

IN: Can you share its DC50? I mean this molecule: Cn1ncc(-c2ccc3c(c2)CN(C2CCC(=O)NC2=O)C3=O)c1-c1ccc(F)cc1 (stereo not drawn)
OUT: < 25 nM

IN: Quick one: DC50 for Cc1ccc(-c2c(-c3ccc4c(c3)CN(C3CCC(=O)NC3=O)C4=O)cnn2C)c(C#N)c1 (stereo not drawn) ?
OUT: < 25 nM
